test system: Escherichia coli TOP10; assay: shrunken log2 fold change of peptide-encoding DNA abundance (4.5 h post-induction vs induction); higher = less antimicrobial activity (less host growth inhibition); details: time post-induction: 4.5 h; library: site-saturation at positions 5, 18, 19, 20
The following ranges of shrunken log2 fold change define the classes used here: lower range: < -0.03; middle range: ≥ -0.03 and < 0.1; upper range: ≥ 0.1

Answered cases to consult:
sequence_content=RRIRGRPPRLPRPRPRPNYIPRP target_system="Escherichia coli TOP10" label="lower range"
sequence_content=RRIRPRPPRLPRPRPRPTNMPRP target_system="Escherichia coli TOP10" label="lower range"
sequence_content=RRIRHRPPRLPRPRPRPHKRPRP target_system="Escherichia coli TOP10" label="middle range"
sequence_content=RRIRMRPPRLPRPRPRPWVYPRP target_system="Escherichia coli TOP10" label="middle range"
sequence_content=RRIRCRPPRLPRPRPRPMCVPRP target_system="Escherichia coli TOP10" label="lower range"
sequence_content=RRIRVRPPRLPRPRPRPLWFPRP target_system="Escherichia coli TOP10" label="upper range"

Lab log: RRIRFRPPRLPRPRPRPCQEPRP — assign shrunken log2 fold change category
upper range

Lab log: RRIRPRPPRLPRPRPRPIQCPRP — assign shrunken log2 fold change category
middle range

Lab log: RRIRGRPPRLPRPRPRPGAVPRP — assign shrunken log2 fold change category
upper range

Lab log: RRIRRRPPRLPRPRPRPHFIPRP — assign shrunken log2 fold change category
lower range

Lab log: RRIRKRPPRLPRPRPRPNVGPRP — assign shrunken log2 fold change category
middle range

* * *

Each entry below carries its recorded shrunken log2 fold change.
tested on: Escherichia coli TOP10; assay: shrunken log2 fold change of peptide-encoding DNA abundance (4.5 h post-induction vs induction); higher = less antimicrobial activity (less host growth inhibition); conditions: time post-induction: 4.5 h; library: site-saturation at positions 5, 18, 19, 20
Just the number, please, no unit after it.

For RRIRKRPPRLPRPRPRPEWIPRP the sequence record lists shrunken log2 fold change as 0.454

For RRIRNRPPRLPRPRPRPVKMPRP the sequence record lists shrunken log2 fold change as -0.107

For RRIRCRPPRLPRPRPRPHVTPRP the sequence record lists shrunken log2 fold change as -0.64

For RRIRSRPPRLPRPRPRPPPMPRP the sequence record lists shrunken log2 fold change as 0.817

For RRIRGRPPRLPRPRPRPSHPPRP the sequence record lists shrunken log2 fold change as 0.372

* * *

test system: Escherichia coli TOP10; assay: shrunken log2 fold change of peptide-encoding DNA abundance (4.5 h post-induction vs induction); higher = less antimicrobial activity (less host growth inhibition); conditions: time post-induction: 4.5 h; library: site-saturation at positions 5, 18, 19, 20;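 further: peptides expressed intracellularly from a pBAD plasmid library in pooled LB shake-flask culture, induced with 0.3% L-arabinose, DNA abundance read by NGS, three biological replicates, DESeq2 with apeglm shrinkage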
The threshold is inclusive: shrunken log2 fold change of exactly -0.07 counts as Satisfied; values below receive Not satisfied.

Answered cases to consult:
sequence_content=RRIRPRPPRLPRPRPRPWGTPRP label="Not satisfied"
sequence_content=RRIRLRPPRLPRPRPRPDTQPRP label=Satisfied
sequence_content=RRIRCRPPRLPRPRPRPWQMPRP label="Not satisfied"
sequence_content=RRIRRRPPRLPRPRPRPACHPRP label=Satisfied

Is it the case that RRIRTRPPRLPRPRPRPDWKPRP has shrunken log2 fold change reaching or exceeding -0.07?
Satisfied

Is it the case that RRIRKRPPRLPRPRPRPPMQPRP has shrunken log2 fold change reaching or exceeding -0.07?
Satisfied

Is it the case that RRIRHRPPRLPRPRPRPHPWPRP has shrunken log2 fold change reaching or exceeding -0.07?
Not satisfied
